- tested.system: T1, IL-18 binding protein (IL-18BP) (UniProt O95998 31-194)
- T1 sequence (looked up): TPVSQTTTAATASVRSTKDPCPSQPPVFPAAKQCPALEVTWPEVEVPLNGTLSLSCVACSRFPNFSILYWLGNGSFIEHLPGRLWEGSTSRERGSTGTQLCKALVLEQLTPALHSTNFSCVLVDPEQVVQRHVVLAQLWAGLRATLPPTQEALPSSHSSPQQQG
- protocol.summary: cell-based or functional assay
quantity.kind: Ratio (-BP/+BP), DF-1000005
Simply state the number, no unit and no words.

binder	meas.value
IL-18 variant G3Q, E6Q, K53T, D54W, S55F, N91Y (ligand) YFQKLQSKLSVIRNLNDQVLFIDQGNRPLFEDMTDSDMRDNAPRTIFIISMYTWFQPRGMAVTISVKSEKISTLSSENKIISFKEMNPPDYIKDTKSDIIFFQRSVPGHDNKMQFESSSYEGYFLASEKERDLFKLILKKEDELGDRSIMFTVQNED	1.08

Continue with the next binder.
Task: Note down Ratio (-BP/+BP), DF-1000005 recorded for IL-18 variant G3P, E6K, K53T, D54Y, S55V, T63I, N91I (ligand) YFPKLKSKLSVIRNLNDQVLFIDQGNRPLFEDMTDSDMRDNAPRTIFIISMYTYVQPRGMAVIISVKSEKISTLSSENKIISFKEMNPPDIIKDTKSDIIFFQRSVPGHDNKMQFESSSYEGYFLASEKERDLFKLILKKEDELGDRSIMFTVQNED
Output: 0.81
